Entry source: ChEMBL document CHEMBL1133771

molecular target: UniProtKB P30556; assay: Binding affinity against AT1 in human hepatoma cell line, PLC-PRF-5
Sequence (P30556 whole entry): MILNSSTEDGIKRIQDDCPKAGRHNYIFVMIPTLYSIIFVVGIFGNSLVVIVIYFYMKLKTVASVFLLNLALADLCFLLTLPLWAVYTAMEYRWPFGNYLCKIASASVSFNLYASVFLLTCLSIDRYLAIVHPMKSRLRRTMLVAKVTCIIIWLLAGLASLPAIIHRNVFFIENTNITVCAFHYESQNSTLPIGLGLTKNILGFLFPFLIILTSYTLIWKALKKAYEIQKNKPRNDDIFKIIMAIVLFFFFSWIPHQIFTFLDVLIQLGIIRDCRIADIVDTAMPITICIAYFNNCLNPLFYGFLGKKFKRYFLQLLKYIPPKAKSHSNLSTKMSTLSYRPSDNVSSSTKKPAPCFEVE
pKi: −log10 of the molar value.
Is pKi at least 7? Then Yes. If not, No.

Known results for molecules:
{"columns": ["smiles-representation", "class"],
 "data": [
  ["CCCCN1C(=O)C2(CCCC2)C(=O)N1Cc1ccc(-c2ccccc2S(=O)(=O)NC(=O)c2ccccc2)cc1", "Yes"],
  ["CCCCN1C(=O)C2(CCCC2)C(=O)N1Cc1ccc(-c2ccccc2-c2nn[nH]n2)cc1", "Yes"],
  ["CCCCN1C(=O)C2(CCCC2)C(=O)N1Cc1ccc(-c2ccccc2S(=O)(=O)NC(=O)NC2CCCCC2)cc1", "Yes"],
  ["CCCCC(=O)NS(=O)(=O)c1ccccc1-c1ccc(CN2C(=O)C3(CCCC3)C(=O)N2CCCC)cc1", "Yes"],
  ["CCCCN1C(=O)C2(CCCC2)C(=O)N1Cc1ccc(-c2ccccc2S(N)(=O)=O)cc1", "No"],
  ["CCCCN1C(=O)C2(CCCC2)C(=O)N1Cc1ccc(-c2ccccc2)cc1", "No"],
  ["CCCCN1C(=O)C2(CCCC2)C(=O)N1Cc1ccc(C(=O)Nc2cccc(C(=O)O)c2)cc1", "No"],
  ["CCCCN1C(=O)C2(CCCC2)C(=O)N1Cc1ccc(-c2ccccc2S(=O)(=O)NC(C)(C)C)cc1", "No"],
  ["CCCCN1C(=O)C2(CCCC2)C(=O)N1Cc1ccc(NC(=O)c2ccccc2C(=O)O)cc1", "No"]
]}

We next turn to a different molecule, shown below.
Req: Does the molecule CCCCN1C(=O)C2(CCCC2)C(=O)N1Cc1ccc(-c2ccccc2C#N)cc1 have recorded pKi that is 7 or more?
Resp: No
